Known hERG current change (%, negative = inhibition) at 1uM of a selection of compounds
systemTested: human ether-à-go-go-related gene (hERG) potassium channel (human, UniProt Q12809)
Sequence (Q12809 whole entry, looked up): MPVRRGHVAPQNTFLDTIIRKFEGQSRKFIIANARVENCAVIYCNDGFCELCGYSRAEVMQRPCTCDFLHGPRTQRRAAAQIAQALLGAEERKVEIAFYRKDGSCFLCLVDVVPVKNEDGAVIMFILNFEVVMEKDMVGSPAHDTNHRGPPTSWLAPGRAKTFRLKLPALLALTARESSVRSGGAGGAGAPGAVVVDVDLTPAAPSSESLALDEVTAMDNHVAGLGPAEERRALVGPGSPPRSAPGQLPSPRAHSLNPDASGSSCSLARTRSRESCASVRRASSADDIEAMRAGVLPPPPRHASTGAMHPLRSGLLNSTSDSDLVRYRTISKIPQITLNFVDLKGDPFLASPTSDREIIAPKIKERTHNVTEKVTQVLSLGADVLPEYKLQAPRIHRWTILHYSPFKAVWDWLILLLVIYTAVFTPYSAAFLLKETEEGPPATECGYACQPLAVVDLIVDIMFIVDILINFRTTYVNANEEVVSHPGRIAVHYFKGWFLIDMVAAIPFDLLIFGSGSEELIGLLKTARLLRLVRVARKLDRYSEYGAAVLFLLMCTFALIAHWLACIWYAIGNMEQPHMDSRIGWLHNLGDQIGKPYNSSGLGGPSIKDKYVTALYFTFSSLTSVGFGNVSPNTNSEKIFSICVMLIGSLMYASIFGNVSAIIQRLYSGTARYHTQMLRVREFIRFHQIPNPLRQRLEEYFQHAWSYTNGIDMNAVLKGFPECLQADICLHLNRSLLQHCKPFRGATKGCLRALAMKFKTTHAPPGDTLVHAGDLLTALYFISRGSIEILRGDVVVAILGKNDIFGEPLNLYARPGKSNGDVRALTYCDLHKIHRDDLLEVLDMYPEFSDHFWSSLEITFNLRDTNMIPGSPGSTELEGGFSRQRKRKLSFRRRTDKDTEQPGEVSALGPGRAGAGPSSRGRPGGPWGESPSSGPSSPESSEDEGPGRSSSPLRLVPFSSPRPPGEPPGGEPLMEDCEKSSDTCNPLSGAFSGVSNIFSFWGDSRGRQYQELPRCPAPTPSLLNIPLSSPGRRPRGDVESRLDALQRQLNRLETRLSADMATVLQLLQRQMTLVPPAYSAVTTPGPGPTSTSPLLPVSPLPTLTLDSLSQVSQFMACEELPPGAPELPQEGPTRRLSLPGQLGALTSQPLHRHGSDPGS
testMethodNotes: primary screen, population patch clamp on CHO cells stably expressing hERG; higher = less effect of the substance
Screen size: about 310,000 compounds; about 2,200 (0.71%) showed an effect of 50% or more. Effects have a minus sign here. The list comes from a sample in which strong results are over-represented; it also holds close analogues and randomly drawn compounds.
property: hERG current change (%, negative = inhibition) at 1uM (%)

compound: COc1ccccc1N1CCN(CCCOc2ccc(F)cc2)CC1
recordedValue: -60.3

compound: CCn1c(=O)c(CCC(=O)NCC2CCCO2)c(C)c2c(C)nn(-c3ccc(C)cc3)c21 (centres unmarked)
recordedValue: 19.9

compound: COc1ccccc1N1CCN(Cc2ccc(F)cc2)CC1
recordedValue: 6.42

compound: CC1(c2cnc(Nc3ccccc3)s2)CCC(=O)O1 (centres unmarked)
recordedValue: 11.7

compound: CCOc1ccc(C(C)=O)cc1COC(=O)C1=COCCO1
recordedValue: -0.905

compound: CCN1CCN(c2c(Cl)cccc2NC(=O)c2ccc(Br)o2)CC1
recordedValue: -59.3

compound: CCCN(C(=O)CCl)C1=CCCCC1
recordedValue: 26.6

compound: CCOC(=O)N1CCc2c(sc(NC(=O)CN3CCOCC3)c2C(=O)Nc2ccccc2)C1
recordedValue: -31.9

compound: O=C(CSc1nc2[nH]ncc2c(=O)[nH]1)Nc1ccc(F)cc1
recordedValue: 13.3

compound: CCOC(=O)c1c(NC(=O)Cc2ccccc2)sc2c1CCN(C)C2.Cl
recordedValue: -19.2

compound: CCN1CCN(c2c(Cl)cccc2NC(=O)c2ccco2)CC1
recordedValue: -70.7

compound: CC(=O)Oc1ccc(-c2nc3c(C)cccc3c(=O)o2)cc1
recordedValue: 11.9

compound: CCOC(=O)N1CCc2c(sc(NC(=O)CN3CCN(C)CC3)c2C(=O)Nc2ccccc2)C1
recordedValue: -85.6

compound: CCOC(=O)c1c(NC(=S)Nc2ccccc2)sc2c1CCN(C)C2
recordedValue: -62.8

compound: CCOC(=O)c1c(NC(=S)Nc2ccccc2)sc2c1CCN(CC)C2
recordedValue: -80.2

compound: Cc1ccccc1S(=O)Cc1ccc(C(=O)NCCN2CCOCC2)o1 (centres unmarked)
recordedValue: 25.5

compound: CC1CN(C(=O)CCC(=O)NCc2ccccc2)c2cc(Cl)ccc2O1 (centres unmarked)
recordedValue: 0.521

compound: COc1ccccc1N1CCN(CCCCOc2cccc3ccccc23)CC1.Cl
recordedValue: 9.44

compound: COc1ccc(CN2CCNC(=O)C2CC(=O)NCCc2nc(C)c3c(n2)CCC3)cc1C (centres unmarked)
recordedValue: 32.9

compound: COc1ccccc1N1CCN(CCCCOc2ccc(F)cc2)CC1.Cl
recordedValue: -71.5

compound: CCN1CCN(c2c(Cl)cccc2NC(=O)c2ccc([N+](=O)[O-])o2)CC1
recordedValue: -77

compound: O=C(Nc1cccc(Cl)c1N1CCOCC1)c1ccco1
recordedValue: 4.55

compound: COc1ccccc1-c1nnc(SCC(=O)NC2CCS(=O)(=O)C2)n1CCc1ccccc1 (centres unmarked)
recordedValue: 11.2

compound: CCN1CCN(CCCNC(=O)CCC(=O)N2CC(C)Oc3ccc(C)cc32)CC1 (centres unmarked)
recordedValue: 6.55

compound: O=C(Nc1cccc(Cl)c1N1CCOCC1)c1ccc([N+](=O)[O-])o1
recordedValue: 3.63

compound: CC(C)OC(=O)CSc1nc2c(cc1C#N)CCCCC2
recordedValue: 10.2

compound: CCOC(=O)c1c(NC(=S)Nc2ccccc2)sc2c1CCCCC2
recordedValue: 12.8

compound: COC(=O)C1=C(CSCc2ccco2)NC(=O)NC1c1cc(C)ccc1C (centres unmarked)
recordedValue: -8.26

compound: O=C(c1ccccc1)c1ccc(OCC(O)CN2CCN(S(=O)(=O)N3CCCCC3)CC2)cc1 (centres unmarked)
recordedValue: -12.6

compound: O=S(=O)(NC1CCCCCCC1)c1ccc(F)cc1
recordedValue: 12.2

compound: CCCOc1ccc(C2C(C(=O)OC)=CN(CCOC)C=C2C(=O)OC)cc1
recordedValue: -5.54

compound: O=C(Nc1cccc(Cl)c1N1CCCC1)c1ccc(Br)o1
recordedValue: -5.81

compound: COc1ccccc1N1CCN(S(=O)(=O)c2c(C)sc3ncn(CC(=O)NCCN(C)C)c(=O)c23)CC1
recordedValue: 10.8

compound: Cc1ccc(CCN2CC(C(=O)NCCCN3CCOCC3)CC2=O)cc1 (centres unmarked)
recordedValue: 16.5

compound: O=C(CCc1ccccc1)Nc1cc2c3c(c1)CCC(=O)N3CCC2
recordedValue: -1.85

compound: COc1ccccc1N1CCN(CCCCCCOc2ccc(F)cc2)CC1
recordedValue: -7.53

compound: Cn1c(=O)c2c(nc(N3CCN(c4ccc([N+](=O)[O-])cc4)CC3)n2C)n(C)c1=O
recordedValue: -81.7

compound: COc1ccc(OC)c(S(=O)(=O)N2CCC(C(=O)NCc3ccccc3OC)CC2)c1
recordedValue: 3.09

compound: Cc1ccc2c(c1)N(C(=O)CCC(=O)NCCCN1CCN(C)CC1)CC(C)O2 (centres unmarked)
recordedValue: 8.82

compound: COc1ccccc1N1CCN(CCCC(=O)c2ccc(F)cc2)CC1
recordedValue: -43.2

compound: CCn1c(SCC(=O)NC2CCS(=O)(=O)C2)nnc1-c1ccccc1 (centres unmarked)
recordedValue: 6.72
